A collection of compounds and their measured inhibition at 10 µM
subject of test: rat B1R (Rattus norvegicus)
Construct: expressed in transfected cells; host or cells: CHO K1 cells
Sequence (P97583 whole entry): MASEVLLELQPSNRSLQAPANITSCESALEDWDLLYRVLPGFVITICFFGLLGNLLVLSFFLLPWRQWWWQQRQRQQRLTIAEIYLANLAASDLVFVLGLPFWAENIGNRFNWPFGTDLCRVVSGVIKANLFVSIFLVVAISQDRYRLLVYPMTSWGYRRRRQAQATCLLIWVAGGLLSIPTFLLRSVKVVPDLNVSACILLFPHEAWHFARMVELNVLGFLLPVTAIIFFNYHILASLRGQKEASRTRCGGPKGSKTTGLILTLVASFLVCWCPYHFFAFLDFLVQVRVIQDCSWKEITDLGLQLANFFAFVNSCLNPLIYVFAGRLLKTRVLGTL
assay details: FLIPR Ca2+ functional study on bradykinin receptor 1 (rB1R CHO K1 cells)
Format: cell-based
details: CHO-K1, % inhibition rat B1R at 10 μM, read-out: % inh. (rat B1R) 10 μM
Give just the number in %; leave the unit off.

[
  {
    "compound": "COc1cc(C)c(S(=O)(=O)N2CC(Oc3ccnc(N4CCC(CCN5CCCC5)CC4)n3)C2)c(C)c1 [H_CC-014]",
    "inhibition at 10 µM, %": 53
  },
  {
    "compound": "Cc1cccc(Cl)c1S(=O)(=O)N(CCOc1nccc(N2CCC3(CCN(c4ccncc4)CC3)CC2)n1)C1CC1 [Example G-009]",
    "inhibition at 10 µM, %": 91
  },
  {
    "compound": "COc1cc(C)c(S(=O)(=O)N(C)CCOc2nccc(N3CCC4(CC3)CCN(c3ccc(F)cc3)C4=O)n2)c(C)c1 [G_CC-042]",
    "inhibition at 10 µM, %": 87
  }
]

Turning now to a further record.
Could you share which inhibition at 10 µM value was measured for COc1cc(C)c(S(=O)(=O)N(C)CCOc2ccnc(N(C)CCN3CCC(Oc4ccncc4)CC3)n2)c(C)c1 [H_CC-089] ?
58

// provenance: patent US8269000B2
